subject.of.test: Disintegrin and metalloproteinase domain-containing protein 17 (Homo sapiens)
Sequence (P78536 whole entry, the tested form may be a part): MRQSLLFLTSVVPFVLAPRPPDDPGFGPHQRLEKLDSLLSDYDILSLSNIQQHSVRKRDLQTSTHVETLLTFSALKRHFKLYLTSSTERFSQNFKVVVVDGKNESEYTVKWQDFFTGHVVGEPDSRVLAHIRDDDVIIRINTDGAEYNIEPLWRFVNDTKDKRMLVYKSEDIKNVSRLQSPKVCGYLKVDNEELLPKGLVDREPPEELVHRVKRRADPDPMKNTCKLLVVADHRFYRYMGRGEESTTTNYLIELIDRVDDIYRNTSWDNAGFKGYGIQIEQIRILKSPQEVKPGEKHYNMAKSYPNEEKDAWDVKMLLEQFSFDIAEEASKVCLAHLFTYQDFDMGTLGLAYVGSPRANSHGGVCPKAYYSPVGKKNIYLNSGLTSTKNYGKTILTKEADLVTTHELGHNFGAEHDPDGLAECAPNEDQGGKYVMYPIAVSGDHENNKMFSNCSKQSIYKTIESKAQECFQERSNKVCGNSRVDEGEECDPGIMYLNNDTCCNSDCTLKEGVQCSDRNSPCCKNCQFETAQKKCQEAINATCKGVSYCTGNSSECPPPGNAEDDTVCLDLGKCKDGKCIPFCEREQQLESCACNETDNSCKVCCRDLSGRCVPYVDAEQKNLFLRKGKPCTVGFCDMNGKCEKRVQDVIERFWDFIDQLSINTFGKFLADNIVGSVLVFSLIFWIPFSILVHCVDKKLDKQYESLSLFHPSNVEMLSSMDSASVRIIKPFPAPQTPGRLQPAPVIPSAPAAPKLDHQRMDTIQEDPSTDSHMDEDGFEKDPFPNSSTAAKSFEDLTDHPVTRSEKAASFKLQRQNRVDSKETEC
test.protocol: inhibition of ADAM17 substrate cleavage – biochemical, quenched FRET substrate, counter-screen for ADAM10 exosite inhibitor project, dose response (AID 743253)
Quick reference: IC50 of the listed items.

| compound | unit.symbol | IC50 |
| --- | --- | --- |
| O=C1C=CC([N+](=O)[O-])=CC1CN=Nc1ccccn1 (stereo not drawn) | µM | 9.75 |
| N#CCSc1nc2cc(C(=O)N3CCC(C(N)=O)CC3)ccc2c2nc3ccccc3n12 | µM | 69.6 |
| COc1ccc(N2C(=O)NC(=O)C(=Cc3c[nH]c4ccc(Br)cc34)C2=O)c(OC)c1 | µM | 12 |
